Assay System: T1, human TrkB monomer (His ECD) (human, UniProt Q16620 32-430)
T1 construct: extracellular domain; amine-coupled to the chip
T1 sequence (Q16620 32-430): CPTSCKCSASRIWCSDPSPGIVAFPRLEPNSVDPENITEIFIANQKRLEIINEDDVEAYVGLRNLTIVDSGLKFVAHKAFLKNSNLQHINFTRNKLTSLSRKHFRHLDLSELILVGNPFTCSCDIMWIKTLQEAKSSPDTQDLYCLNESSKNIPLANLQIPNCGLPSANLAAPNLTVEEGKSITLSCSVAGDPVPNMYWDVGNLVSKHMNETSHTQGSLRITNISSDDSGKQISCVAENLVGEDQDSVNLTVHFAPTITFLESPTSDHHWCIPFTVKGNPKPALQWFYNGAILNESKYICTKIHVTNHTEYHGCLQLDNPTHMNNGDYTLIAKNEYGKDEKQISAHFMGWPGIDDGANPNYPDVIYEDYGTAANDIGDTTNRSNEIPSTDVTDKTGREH
Test Details: SPR (Biacore), Fab over amine-coupled TrkB His ECD monomer, 25 C
Procedure: TrkB monomers (H is ECD) of human, mouse, and rat were amine-coupled to the chip at levels of 2008, 1008, and 889RU respectively in an effort to give low capacity surfaces suitable for kinetic analysis. […] The concentrations of the Fab proteins are determined by ELISA and/or SDS-PAGE electrophoresis using a Fab of known concentration (as determined by amino acid analysis) as a standard. […] Equilibrium dissociation constant (KD) values are calculated as koff/kₒₙ.
Endpoint Label: koff (s⁻¹)
// return numeric value only (unit: s⁻¹, not printed)

>  <Binder>
4B12 (Fab, V domains shown, Fab) VH: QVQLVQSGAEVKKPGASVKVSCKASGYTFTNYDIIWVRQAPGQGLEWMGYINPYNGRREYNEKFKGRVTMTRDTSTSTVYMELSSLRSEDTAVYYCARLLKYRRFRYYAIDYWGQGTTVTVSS VL: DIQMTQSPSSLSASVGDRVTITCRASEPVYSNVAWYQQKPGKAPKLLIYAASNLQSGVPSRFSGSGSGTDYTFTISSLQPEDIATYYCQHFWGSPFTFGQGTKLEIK

>  <Recorded Number>
0.000532

$$$$

Query: Data request, read-out koff, for A2 (Fab, V domains shown, Fab) VH: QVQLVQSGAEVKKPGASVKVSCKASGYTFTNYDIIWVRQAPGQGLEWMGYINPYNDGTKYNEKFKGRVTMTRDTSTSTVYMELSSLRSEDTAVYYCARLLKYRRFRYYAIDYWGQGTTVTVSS VL: DIQMTQSPSSLSASVGDRVTITCRASENVYSNLAWYQQKPGKAPKLLIYAASNLQSGVPSRFSGSGSGTDYTFTISSLQPEDIATYYCQHFWYSPWTFGQGTKLEIK
Result: 0.00145

Query: Data request, read-out koff, for 4A6 (Fab, V domains shown, Fab) VH: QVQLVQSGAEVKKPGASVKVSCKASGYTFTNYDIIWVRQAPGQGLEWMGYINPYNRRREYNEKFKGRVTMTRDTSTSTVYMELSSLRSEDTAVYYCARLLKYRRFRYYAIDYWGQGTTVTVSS VL: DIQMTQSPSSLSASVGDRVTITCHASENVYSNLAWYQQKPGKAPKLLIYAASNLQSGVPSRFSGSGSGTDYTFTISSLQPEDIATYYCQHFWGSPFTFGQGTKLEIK
Result: 0.000705

Query: Data request, read-out koff, for C2 (Fab, V domains shown, Fab) VH: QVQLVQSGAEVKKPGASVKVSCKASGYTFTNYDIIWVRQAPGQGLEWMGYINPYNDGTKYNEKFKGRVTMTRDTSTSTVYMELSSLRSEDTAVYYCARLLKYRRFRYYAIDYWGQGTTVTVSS VL: DIQMTQSPSSLSASVGDRVTITCRTSENVYSNLAWYQQKPGKAPKLLIYAASNLQSGVPSRFSGSGSGTDYTFTISSLQPEDIATYYCQHFWGSPFTFGQGTKLEIK
Result: 0.0014
